System: KYSE450 cells
assay-name: MTT assay, KYSE450
Assay type: cell-based, human
conditions: KYSE450; concentration 12.5 (unit not given)
Here, each record is paired with measured mean absorbance 490 nm minus background (row H) data.
Respond with the number and no other words.

smiles-repr: COc1cccc(-n2cc(-c3cccc(Nc4ncnc5cc6c(cc45)OCCOCCOCCO6)c3)nn2)c1
experimental-value: 0.2948
--
smiles-repr: Clc1ccccc1-n1cc(-c2cccc(Nc3ncnc4cc5c(cc34)OCCOCCOCCO5)c2)nn1
experimental-value: 0.4989
--
smiles-repr: COc1ccccc1-n1cc(-c2cccc(Nc3ncnc4cc5c(cc34)OCCOCCOCCO5)c2)nn1
experimental-value: 0.3824
--
smiles-repr: Fc1ccc(CCn2cc(-c3cccc(Nc4ncnc5cc6c(cc45)OCCOCCOCCO6)c3)nn2)cc1
experimental-value: 0.3414
--
smiles-repr: c1ccc(Cn2cc(-c3cccc(Nc4ncnc5cc6c(cc45)OCCOCCOCCO6)c3)nn2)cc1
experimental-value: 0.586

Now examine the next entry.
**Q:** Please tell me: mean absorbance 490 nm minus background (row H) of Cc1ccccc1Cn1cc(-c2cccc(Nc3ncnc4cc5c(cc34)OCCOCCOCCO5)c2)nn1 , system KYSE450 cells?
**A:** 0.3163

---

Tested on: KYSE410 cells
assay-name: MTT assay, KYSE410
Format: cell-based, human
conditions: KYSE410, concentration 25
Catalogue of molecules with associated blank-corrected absorbance 490 nm relative to control (fraction)
Give only the figure.

Example entries begin here.
smiles-repr: COc1cccc(-n2cc(-c3cccc(Nc4ncnc5cc6c(cc45)OCCOCCOCCO6)c3)nn2)c1
experimental-value: 0.6596
--
smiles-repr: Clc1ccccc1-n1cc(-c2cccc(Nc3ncnc4cc5c(cc34)OCCOCCOCCO5)c2)nn1
experimental-value: 0.2124
--
smiles-repr: Cc1ccccc1Cn1cc(-c2cccc(Nc3ncnc4cc5c(cc34)OCCOCCOCCO5)c2)nn1
experimental-value: 0.04668
--
smiles-repr: Clc1ccc(-n2cc(-c3cccc(Nc4ncnc5cc6c(cc45)OCCOCCOCCO6)c3)nn2)cc1
experimental-value: 0.4139

**Q:** What value of blank-corrected absorbance 490 nm relative to control (fraction) on KYSE410 cells does COc1ccccc1-n1cc(-c2cccc(Nc3ncnc4cc5c(cc34)OCCOCCOCCO5)c2)nn1 have?
**A:** -0.00175

**Q:** Please provide the recorded blank-corrected absorbance 490 nm relative to control (fraction) for c1ccc(Cn2cc(-c3cccc(Nc4ncnc5cc6c(cc45)OCCOCCOCCO6)c3)nn2)cc1 , tested on KYSE410 cells.
**A:** 0.3216

**Q:** Lab request: please report blank-corrected absorbance 490 nm relative to control (fraction) under test system KYSE410 cells for Fc1ccc(CCn2cc(-c3cccc(Nc4ncnc5cc6c(cc45)OCCOCCOCCO6)c3)nn2)cc1
**A:** 0.4202

---

Measured blank-corrected absorbance 490 nm relative to control (fraction) values are reported for all entries that follow.
Tested on: KYSE410 cells
assay-name: MTT assay, KYSE410
Assay type: cell-based, human
conditions: KYSE410, concentration 50

molecule: c1ccc(Cn2cc(-c3cccc(Nc4ncnc5cc6c(cc45)OCCOCCOCCO6)c3)nn2)cc1 [compound 3r]
experimental-value: 0.3502

molecule: COc1cccc(-n2cc(-c3cccc(Nc4ncnc5cc6c(cc45)OCCOCCOCCO6)c3)nn2)c1 [compound 3i]
experimental-value: 1.468

molecule: Clc1ccccc1-n1cc(-c2cccc(Nc3ncnc4cc5c(cc34)OCCOCCOCCO5)c2)nn1 [compound 3e]
experimental-value: 0.02952

**Q:** Quick one: blank-corrected absorbance 490 nm relative to control (fraction) for Clc1ccc(-n2cc(-c3cccc(Nc4ncnc5cc6c(cc45)OCCOCCOCCO6)c3)nn2)cc1 [compound 3b] ?
**A:** 0.3164

**Q:** Endpoint output: blank-corrected absorbance 490 nm relative to control (fraction) of Fc1ccc(CCn2cc(-c3cccc(Nc4ncnc5cc6c(cc45)OCCOCCOCCO6)c3)nn2)cc1 [compound 3v] . Value?
**A:** 0.1986

**Q:** Entry COc1ccccc1-n1cc(-c2cccc(Nc3ncnc4cc5c(cc34)OCCOCCOCCO5)c2)nn1 [compound 3d] : reported blank-corrected absorbance 490 nm relative to control (fraction) = ?
**A:** 0.004317

**Q:** Can you look up the measured blank-corrected absorbance 490 nm relative to control (fraction) of Cc1ccccc1Cn1cc(-c2cccc(Nc3ncnc4cc5c(cc34)OCCOCCOCCO5)c2)nn1 [compound 3n] for me?
**A:** 0.02603
